Value source: ChEMBL document CHEMBL1127446

experimental_system: GABA-A receptor; anion channel
protocol_summary: Binding affinity to BZR receptor on bovine cerebral cortex by [3H]flunitrazepam displacement.
The following ranges of Ki define the classes used here: low end (below 10 nM), middle (10 nM to below 30 nM), high end (30 nM or more)

{"smiles_record": "Oc1nc2ccccc2n2nc(-c3ccccc3F)nc12", "experimental_system": "GABA-A receptor; anion channel", "assigned_category": "low end"}
{"smiles_record": "O=c1[nH]c2ccc(Cl)cc2n2nc(-c3cccs3)nc12", "experimental_system": "GABA-A receptor; anion channel", "assigned_category": "middle"}
{"smiles_record": "Oc1nc2ccccc2n2cc(-c3ccccc3)nc12", "experimental_system": "GABA-A receptor; anion channel", "assigned_category": "high end"}
{"smiles_record": "Oc1nc2ccc(Cl)cc2n2nc(-c3ccco3)nc12", "experimental_system": "GABA-A receptor; anion channel", "assigned_category": "middle"}
{"smiles_record": "Oc1nc2ccccc2n2cc(-c3cccs3)nc12", "experimental_system": "GABA-A receptor; anion channel", "assigned_category": "middle"}
{"smiles_record": "O=c1[nH]c2ccc(Cl)cc2n2nc(-c3ccsc3)nc12", "experimental_system": "GABA-A receptor; anion channel", "assigned_category": "middle"}
{"smiles_record": "COc1ccc(-c2cn3c(n2)c(O)nc2ccccc23)cc1", "experimental_system": "GABA-A receptor; anion channel", "assigned_category": "high end"}
{"smiles_record": "Oc1nc2ccc(Cl)cc2n2nc(-c3cccc(F)c3)nc12", "experimental_system": "GABA-A receptor; anion channel", "assigned_category": "high end"}
{"smiles_record": "Oc1nc2ccc(Cl)cc2n2nc(-c3ccccc3F)nc12", "experimental_system": "GABA-A receptor; anion channel", "assigned_category": "low end"}
{"smiles_record": "COc1ccc(-c2nc3c(O)nc4ccccc4n3n2)cc1", "experimental_system": "GABA-A receptor; anion channel", "assigned_category": "high end"}
